# Test system: HEK293T cells carrying the ATF4 luciferase reporter
# assay-details: ATF4-Luc assay (in vitro model of VWMD)
# Assay type: cell-based
# protocol-conditions: Homo sapiens, HEK-293T; HEK293T cells with ATF4 5'-UTR firefly luciferase reporter; 1 μg/mL tunicamycin; 7 hours; One Glo luminescence
# Method: In order to test exemplary compounds of the invention in a cellular context, a stable VWMD cell line was first constructed. […] HEK293T cells carrying the ATF4 luciferase reporter were plated on polylysine coated 384-well plates (Greiner Bio-one) at 30,000 cells per well. […] Luminescence was measured using One Glo (Promega) as specified by the manufacturer. […]
pEC50: −log10 of the molar value.
observable: pEC50

compound: O=C(COc1ccc(Cl)c(F)c1)N[C@H]1CC[C@H](C(=O)NCCOc2ccc(Cl)c(F)c2)CC1
result: 7.30 to 8.00

compound: O=C(COc1ccc(Cl)c(F)c1)N[C@H]1CC[C@H](C(=O)NCc2ncco2)CC1
result: < 5.70

compound: O=C(COc1ccc(Cl)c(F)c1)N[C@H]1CC[C@H](C(=O)N2CCN(c3ccc(Cl)cc3)C(=O)C2)CC1
result: 6.30 to 6.60

compound: O=C(COc1ccc(Cl)c(F)c1)N[C@@H]1CC[C@@H](C(=O)NCc2cc3cc(Cl)ccc3[nH]2)OC1
result: 6.60 to 7.30

compound: O=C(COc1ccc(Cl)c(Cl)c1)N[C@H]1CC[C@H](C(=O)NCc2nc3cc(F)c(F)cc3[nH]2)CC1
result: < 5.70

compound: O=C(COc1ccc(Cl)c(F)c1)N[C@H]1CC[C@H](C(=O)N2CC(c3ccccc3)C2)CC1
result: 7.30 to 8.00

compound: COc1ncc(CNC(=O)[C@@H]2CC[C@@H](NC(=O)COc3ccc(Cl)c(F)c3)CO2)cn1
result: < 5.70

compound: O=C(COc1ccc(Cl)c(F)c1)N[C@H]1CC[C@H](C(=O)NCc2cc(OC3CCC3)ccn2)CC1
result: < 5.70

compound: O=C(COc1ccc(Cl)c(F)c1)N[C@H]1CC[C@H](C(=O)N2CC3(CN(c4ccc(Cl)c(F)c4)C3)C2)CC1
result: < 5.70

compound: O=C(COc1ccc(Cl)c(Cl)c1)N[C@H]1CC[C@H](C(=O)NCc2ccc(C(F)(F)F)cn2)CC1
result: > 8.00

compound: O=C(COc1ccc(Cl)c(F)c1)N[C@@H]1CC[C@H](C(=O)NCc2ccc(C(F)(F)F)cn2)OC1 (single isomer, unassigned)
result: < 5.70

compound: O=C(COc1ccc(Cl)c(F)c1)NC1CCC(C(=O)NCc2ccc(C(F)(F)F)cn2)OC1 (stereo not shown)
result: < 5.70

compound: O=C(COc1ccc(Cl)c(F)c1)N[C@@H]1CC[C@@H](C(=O)NCc2nc(C(F)(F)F)c[nH]2)OC1
result: 6.60 to 7.30

compound: O=C(COc1ccc(Cl)c(F)c1)N[C@@H]1CC[C@@H](C(=O)N2CC(c3ccc(C(F)(F)F)cc3)C2)OC1
result: > 8.00

compound: Cc1cncc(CNC(=O)[C@H]2CC[C@H](NC(=O)COc3ccc(Cl)c(F)c3)CC2)c1
result: < 5.70

compound: O=C(COc1ccc(Cl)c(Cl)c1)N[C@H]1CC[C@H](C(=O)NCc2ccc(OC(F)F)cc2)CC1
result: 6.60 to 7.30

compound: O=C(COc1ccc(Cl)c(F)c1)N[C@H]1CC[C@H](C(=O)NCc2ccc(Cl)cn2)CC1
result: < 5.70

compound: O=C(COc1ccc(Cl)c(F)c1)N[C@H]1CC[C@H](C(=O)NCc2nc3cc(Cl)ccc3[nH]2)CC1
result: 7.30 to 8.00

compound: O=C(COc1ccc(Cl)c(F)c1)N[C@H]1C[C@H](C(=O)Nc2ccc(OC(F)F)nc2)C1
result: < 5.70

compound: O=C(NCc1ccc(C(F)(F)F)cn1)[C@@H]1CC[C@@H](NC(=O)[C@@H]2CNc3cc(Cl)ccc3O2)CO1 (single isomer, unassigned)
result: 6.30 to 6.60

compound: O=C(COc1ccc(Cl)c(Cl)c1)N[C@H]1CC[C@H](C(=O)Nc2ccc(OCC(F)(F)F)nc2)CC1
result: < 5.70

compound: O=C(COc1ccc(Cl)c(F)c1)N[C@H]1C[C@H](C(=O)N2CC(c3ccc(Cl)cc3)C2)C1
result: 6.30 to 6.60

compound: O=C(COc1ccc(Cl)c(F)c1)N[C@H]1CC[C@H](C(=O)N2CCC(c3ccc(Cl)cc3)CC2)CC1
result: < 5.70

compound: O=C(COc1ccc(Cl)c(F)c1)N[C@H]1CC[C@H](C(=O)NCc2ccc3c(c2)OC(F)(F)O3)CC1
result: 7.30 to 8.00

compound: O=C(COc1ccc(Cl)c(F)c1)N[C@H]1CC[C@H](C(=O)Nc2ccc(OC(F)(F)F)cn2)CC1
result: 7.30 to 8.00

compound: O=C(COc1ccc(Cl)c(F)c1)N[C@H]1CC[C@H](C(=O)N2CC(c3ccc(Cl)cc3)C2)CC1
result: > 8.00

compound: O=C(COc1ccc(Cl)c(Cl)c1)N[C@H]1CC[C@H](C(=O)Nc2ccc(OC(F)F)nc2)CC1
result: > 8.00

compound: O=C(COc1ccc(Cl)c(F)c1)N[C@H]1CC[C@H](C(=O)NCc2cnco2)CC1
result: < 5.70
